So basically, the class depends on measured flash point, and the ranges are 0 (below 60 °C), 1 (60 °C to below 100 °C), 2 (100 °C or more)

MOLECULE	CLASS_LABEL
CCC=CCC1=C(C)CCC1=O	2
O=C1OC(=O)c2c(Cl)c(Cl)c(Cl)c(Cl)c21	2
CCc1ccccc1N	1
CCCCCCCC(C)=O	1
CCOC(C)OCC	0
ClCCCBr	0
O=C1c2ccccc2C(=O)c2ccccc21	2
Cc1ccccc1N(C)C	1
CC/C(=C(/CC)c1ccc(O)cc1)c1ccc(O)cc1 [4-[(E)-4-(4-hydroxyphenyl)hex-3-en-3-yl]phenol]	2
CCC(=O)Cl [propanoyl chloride]	0
CCNc1ccccc1	1
CCC(Cl)[N+](=O)[O-] (stereo unspecified)	1
O=C(Cl)c1ccccc1F [2-fluorobenzoyl chloride]	1
SCc1ccccc1	1
CCCC	0
CCCCCCCCCCCCc1ccccc1O	2
CC(C#N)CCC#N (stereo unspecified)	2
CC1COC(=O)O1 (stereo unspecified)	2
CCO	0
Cc1cnc[nH]1	2
CC(=O)C(C)O (stereo unspecified) [3-hydroxybutan-2-one]	0
CCOP(=S)(OCC)SCSCC	2
C1COCCO1	0
Oc1cc(O)c2cc(O)c(-c3cc(O)c(O)c(O)c3)[o+]c2c1.[Cl-] [2-(3,4,5-trihydroxyphenyl)chromenylium-3,5,7-triol;chloride]	2
Oc1ccc(Br)cc1Br	2
O=[N+]([O-])N(Cl)c1ccccc1 [N-chloro-N-phenylnitramide]	2
CCCCCCC	0
CCCCOC(=O)CCC [butyl butanoate]	0
O=C(Cl)C(Cl)Cl [2,2-dichloroacetyl chloride]	1
c1ccc2cc3ccccc3cc2c1	2
C=C(C)C(=O)OCCN(C)C [2-(dimethylamino)ethyl 2-methylprop-2-enoate]	1
Nc1cccc(Cl)c1	2
Clc1ccccc1Cl	1
OCC(O)CO	2
Cc1cc(Cl)ccc1N	2
O=C1CCCC1	0
CC=CC=CC(=O)O	2
N#CCC#N	2
CC1OC1C (stereo unspecified)	0
CC(C)CN(CC(C)C)CC(C)C	0
CC(C)[N+](=O)[O-]	0
CCN(CC)N=O [N,N-diethylnitrous amide]	1
NCCCN	0
C1COCO1	0
